molecular target: Mutant CD33-GFP M15 (Q171A) on 293FT cells (UniProt P20138); assay: FACS, mutant CD33-GFP on 293FT cells
Sequence (P20138 18-364 Q171A): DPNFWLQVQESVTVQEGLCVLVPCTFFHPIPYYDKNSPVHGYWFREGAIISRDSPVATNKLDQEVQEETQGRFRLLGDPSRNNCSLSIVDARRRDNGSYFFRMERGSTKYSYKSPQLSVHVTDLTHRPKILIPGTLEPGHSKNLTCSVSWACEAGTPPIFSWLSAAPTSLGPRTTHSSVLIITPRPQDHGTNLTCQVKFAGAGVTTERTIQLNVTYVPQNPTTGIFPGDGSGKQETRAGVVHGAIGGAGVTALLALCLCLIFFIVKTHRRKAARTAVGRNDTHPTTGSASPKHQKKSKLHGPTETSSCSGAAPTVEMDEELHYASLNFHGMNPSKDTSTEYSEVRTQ
Readout: FACS binding data
Just the number, please, no unit attached.

Query: # lookup: FACS binding data of sdCD33_3 (VHH) VHH: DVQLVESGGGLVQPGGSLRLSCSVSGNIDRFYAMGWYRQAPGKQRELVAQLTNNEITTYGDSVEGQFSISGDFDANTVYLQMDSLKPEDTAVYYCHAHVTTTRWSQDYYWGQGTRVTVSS
Reply: 98.2

Query: Which FACS binding data is listed for sdCD33_6 (VHH, sdAb from a naive llama phage library; also called 416; sdAb416) VHH: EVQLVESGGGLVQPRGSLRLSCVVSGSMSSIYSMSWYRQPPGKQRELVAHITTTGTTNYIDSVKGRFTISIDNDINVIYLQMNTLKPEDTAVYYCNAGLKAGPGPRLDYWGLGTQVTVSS ?
Reply: 98.9

Query: Would you mind telling me what FACS binding data value was observed for sdCD33_7 (VHH, sdAb from a naive llama phage library; also called 420; sdAb420) VHH: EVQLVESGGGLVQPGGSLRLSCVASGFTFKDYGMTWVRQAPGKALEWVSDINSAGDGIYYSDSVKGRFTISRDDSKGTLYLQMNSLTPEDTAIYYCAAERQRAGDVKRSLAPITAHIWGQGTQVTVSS ?
Reply: 98.9

Query: I have this binder here, sdCD33_4 (VHH) VHH: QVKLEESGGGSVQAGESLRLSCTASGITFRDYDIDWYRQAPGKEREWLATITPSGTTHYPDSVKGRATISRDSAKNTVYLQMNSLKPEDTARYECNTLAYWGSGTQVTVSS , and I need its recorded FACS binding data.
Reply: 98.8
